Reference source for all entries: patent US20240262842A1

Molecular target: biotinylated KRAS G12C protein (GMP-PNP loaded) and GST-tagged Ras binding domain of c-RAF (Homo sapiens, UniProt P01116, C118S/C51S/C80L/G12C)
Sequence (P01116 with tags, fused parts or gaps isoform P01116-2 G12C/C51S/C80L/C118S): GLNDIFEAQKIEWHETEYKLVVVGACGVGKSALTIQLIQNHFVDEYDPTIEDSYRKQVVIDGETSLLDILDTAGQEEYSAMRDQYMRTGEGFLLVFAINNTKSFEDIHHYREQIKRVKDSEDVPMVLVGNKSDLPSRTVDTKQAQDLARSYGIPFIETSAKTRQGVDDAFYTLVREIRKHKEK
Assay: RAS:RAF-RBD binding assay (TR-FRET)
Settings: 30-minute incubation of compound with KRAS G12C before RAF-RBD; Table 4; read-out: IC50
pIC50: −log10 of the molar value.
Please use Met whenever pIC50 is not below 8, and Not met whenever it is.

Inquiry: Check this molecule for pIC50 at or above 8: `Cc1nc2c3c(c(C(F)(F)F)cc2n1C)-c1cccn2c(C(=O)c4cc(F)c(NC(=O)/C(F)=C/CNC5CC6(COC6)C5)c(F)c4)cc(c12)CCO3`
Reply text: Not met

Inquiry: # check: pIC50 of `Cc1nc2c3c(c(C(F)(F)F)cc2n1C)-c1cccn2c(C(=O)c4cc(F)c(NC(=O)/C=C/CN5CC(F)C5)c(F)c4)cc(c12)CCN3C` is greater than or equal to 8
Reply text: Not met

Inquiry: Tell me whether pIC50 is at least 8 here: `Cc1nc2c3c(c(OC(F)F)cc2n1C)-c1cccn2c(C(=O)c4cc(F)c(NC(=O)/C=C/CNC5(C)CC5)c(F)c4)cc(c12)CCN3C`
Reply text: Met

Inquiry: Does pIC50 meet or surpass 8 for Cc1nc2c3c(c(C(F)(F)F)cc2n1C)-c1cccn2c(C(=O)c4cc(F)c(NC(=O)/C=C/CNC5(C)COC5)c(F)c4)cc(c12)CC(C)O3 (single isomer, unassigned) [Example 273] ?
Reply text: Not met

Inquiry: # bool: pIC50 of `Cc1nc2c3c(c(C(F)(F)F)cc2n1C)-c1cccn2c(C(=O)c4cc(F)c(NC(=O)/C=C/CNCC5(CO)CC5)c(F)c4)cc(c12)CCO3` >= 8
Reply text: Met

Inquiry: Please tell me: is the molecule `COCc1nc2c3c(c(OC)cc2n1C)-c1cccn2c(C(=O)c4cc(F)c(NC(=O)/C=C/CN5CC[C@H](O)C5)c(F)c4)cc(c12)CCN3C` at or over 8 in terms of pIC50?
Reply text: Not met

Inquiry: Threshold query (pIC50 >= 8) on `COCc1nc2c3c(c(OC)cc2n1C)-c1cccn2c(C(=O)c4cc(F)c(NC(=O)/C=C/CNC5CC6(COC6)C5)c(F)c4)cc(c12)CCN3C`
Reply text: Met

Inquiry: Identify whether the reported pIC50 of the following molecule is 8 or greater: `Cc1nc2c3c(c(C(F)(F)F)cc2n1C)-c1cccn2c(C(=O)c4cc(F)c(NC(=O)/C=C/CN5C[C@H](O)[C@@H](F)C5)c(F)c4)cc(c12)CCO3`
Reply text: Not met

Inquiry: Tell me whether pIC50 is at least 8 here: Cc1nc2c3c(c(C(F)(F)F)cc2n1C)-c1cccn2c(C(=O)c4cc(F)c(NC(=O)/C=C/C5CCCN5)c(F)c4)cc(c12)CCO3 (single isomer, unassigned) [Example 250]
Reply text: Not met
